Recorded melting point by entry

compound=NCCCc1ccc(SCCC(c2ccccc2)(c2ccccc2)c2ccccc2)cc1 result="73 to 75 °C"
compound="CN(C(=O)C(F)(F)F)N1CCc2ccccc2C(Oc2ccc(C(F)(F)F)cc2)C1 (configuration not stated)" result="210 to 212 °C"
compound=CCCc1c(OCCCOc2ccc3c(=O)cc(C(=O)O)oc3c2CCC)ccc(C(C)=O)c1O result="173 to 174 °C"
compound=Cc1ccsc1C(=O)c1cccn1N1C(=O)c2ccccc2C1=O result="221 to 223 °C"
compound=Cc1ccc(S(=O)(=O)N2CCC(c3cccc4c3CCCC(C(=O)O)=C4)CC2)cc1 result="255 to 257 °C"

Problem: Fill in the blank: the reported melting point of COC(OC)c1cccc(NCc2ccccc2)c1 is ____.
Result: 55 to 56 °C

Problem: Fill in the blank: the reported melting point of O=c1[nH]c2ccc(C(F)(F)F)cc2c2c1c(=O)oc1ccc(Cl)cc12 is ____.
Result: > 250 °C

meta.source: a melting point compilation (Tetko et al.; mined from patent text by program, amines drawn as free bases though some values may be those of a salt)
